Test system: Escherichia coli TOP10
experimental details: shrunken log2 fold change of peptide-encoding DNA abundance (4.5 h post-induction vs induction); higher = less antimicrobial activity (less host growth inhibition)
assay context: time post-induction: 4.5 h; library: site-saturation at positions 5, 18, 19, 20
metric: shrunken log2 fold change
Just the number, please, no unit after it.

chain sequence: RRIRARPPRLPRPRPRPDAEPRP
tested system: Escherichia coli TOP10
shrunken log2 fold change: 1.63
//
chain sequence: RRIRRRPPRLPRPRPRPQGIPRP
tested system: Escherichia coli TOP10
shrunken log2 fold change: -0.00228
//
chain sequence: RRIRTRPPRLPRPRPRPRSMPRP
tested system: Escherichia coli TOP10
shrunken log2 fold change: 0.0542

// below: shrunken log2 fold change requested for another sequence
*Q* Give reported shrunken log2 fold change for RRIRWRPPRLPRPRPRPGSDPRP (Escherichia coli TOP10)
*A* 0.661

====

Test system: Escherichia coli TOP10
experimental details: shrunken log2 fold change of peptide-encoding DNA abundance (4.5 h post-induction vs induction); higher = less antimicrobial activity (less host growth inhibition)
assay context: time post-induction: 4.5 h; library: site-saturation at positions 5, 18, 19, 20
Listed below: shrunken log2 fold change values for each entry.
Lab note: write the figure by itself, no unit.

These recorded examples may help you get a feel for the data.
chain sequence: RRIRNRPPRLPRPRPRPICVPRP
metric: shrunken log2 fold change
measured result: 0.111
--
chain sequence: RRIRARPPRLPRPRPRPIGGPRP
metric: shrunken log2 fold change
measured result: -0.0402
--
chain sequence: RRIRQRPPRLPRPRPRPNTHPRP
metric: shrunken log2 fold change
measured result: -0.203
--
chain sequence: RRIRFRPPRLPRPRPRPIQDPRP
metric: shrunken log2 fold change
measured result: -0.025
--
chain sequence: RRIRIRPPRLPRPRPRPSTEPRP
metric: shrunken log2 fold change
measured result: -0.388

*Q* Let me know recorded shrunken log2 fold change for RRIRGRPPRLPRPRPRPTEWPRP , thanks.
*A* 1.23

====

# shrunken log2 fold change per entry
Tested on: Escherichia coli TOP10
experimental details: shrunken log2 fold change of peptide-encoding DNA abundance (4.5 h post-induction vs induction); higher = less antimicrobial activity (less host growth inhibition)
assay context: time post-induction: 4.5 h; library: site-saturation at positions 5, 18, 19, 20

Examples with answers:
chain sequence: RRIRGRPPRLPRPRPRPAPYPRP
tested system: Escherichia coli TOP10
shrunken log2 fold change: 0.218
//
chain sequence: RRIRLRPPRLPRPRPRPSSYPRP
tested system: Escherichia coli TOP10
shrunken log2 fold change: -0.542
//
chain sequence: RRIRARPPRLPRPRPRPQSMPRP
tested system: Escherichia coli TOP10
shrunken log2 fold change: -0.0226
//
chain sequence: RRIRGRPPRLPRPRPRPPMMPRP
tested system: Escherichia coli TOP10
shrunken log2 fold change: 0.626

Alright, here's another sequence for you.
*Q* Tell me its shrunken log2 fold change given RRIRARPPRLPRPRPRPWCHPRP as the entry.
*A* -0.0135

====

System: Escherichia coli TOP10
experimental details: shrunken log2 fold change of peptide-encoding DNA abundance (4.5 h post-induction vs induction); higher = less antimicrobial activity (less host growth inhibition)
assay context: time post-induction: 4.5 h; library: site-saturation at positions 5, 18, 19, 20
Kindly return MET if reported shrunken log2 fold change is no lower than 0.2; return NOT MET if it is lower.

Example results:
chain sequence: RRIRFRPPRLPRPRPRPGGAPRP
discrete label: MET
//
chain sequence: RRIRKRPPRLPRPRPRPRQGPRP
discrete label: MET
//
chain sequence: RRIRHRPPRLPRPRPRPNNKPRP
discrete label: NOT MET

*Q* Does the sequence RRIRRRPPRLPRPRPRPLQFPRP have recorded shrunken log2 fold change that is 0.2 or more?
*A* MET

*Q* Does shrunken log2 fold change meet or surpass 0.2 for RRIRIRPPRLPRPRPRPHPQPRP ?
*A* NOT MET

*Q* Threshold query (shrunken log2 fold change >= 0.2) on RRIRPRPPRLPRPRPRPKQQPRP
*A* MET

*Q* Evaluate RRIRLRPPRLPRPRPRPVNLPRP : shrunken log2 fold change at minimum 0.2?
*A* NOT MET

*Q* shrunken log2 fold change >= 0.2 for RRIRNRPPRLPRPRPRPTHKPRP ?
*A* MET

====

System: Escherichia coli TOP10
experimental details: shrunken log2 fold change of peptide-encoding DNA abundance (4.5 h post-induction vs induction); higher = less antimicrobial activity (less host growth inhibition)
assay context: time post-induction: 4.5 h; library: site-saturation at positions 5, 18, 19, 20
Please note: y applies when shrunken log2 fold change is -0.0002 or greater, and n applies otherwise.

# example entries with known answers
chain sequence: RRIRARPPRLPRPRPRPGTQPRP
discrete label: y

chain sequence: RRIRLRPPRLPRPRPRPYVVPRP
discrete label: n

chain sequence: RRIRVRPPRLPRPRPRPVMVPRP
discrete label: n

chain sequence: RRIRLRPPRLPRPRPRPVEAPRP
discrete label: y

chain sequence: RRIRERPPRLPRPRPRPCWAPRP
discrete label: y

Next, consider the following sequence.
*Q* Exam item: decide whether the reported shrunken log2 fold change for RRIRKRPPRLPRPRPRPWCWPRP is at least -0.0002.
*A* y

====

Test system: Escherichia coli TOP10
experimental details: shrunken log2 fold change of peptide-encoding DNA abundance (4.5 h post-induction vs induction); higher = less antimicrobial activity (less host growth inhibition)
assay context: time post-induction: 4.5 h; library: site-saturation at positions 5, 18, 19, 20
Binary classification by shrunken log2 fold change, with 0.01 as an inclusive lower bound for rule met; all other cases are rule not met.

Please review the following examples before continuing.
chain sequence: RRIRFRPPRLPRPRPRPNQMPRP
discrete label: rule not met
//
chain sequence: RRIRGRPPRLPRPRPRPGVPPRP
discrete label: rule met
//
chain sequence: RRIRHRPPRLPRPRPRPTCMPRP
discrete label: rule not met

*Q* Is shrunken log2 fold change for RRIRQRPPRLPRPRPRPKPWPRP at or above 0.01?
*A* rule met

*Q* hey, is shrunken log2 fold change for this one >= 0.01? RRIRKRPPRLPRPRPRPVYLPRP
*A* rule not met

*Q* Check this sequence for shrunken log2 fold change at or above 0.01: RRIRGRPPRLPRPRPRPERQPRP
*A* rule met

*Q* Record RRIRMRPPRLPRPRPRPNMSPRP ; criterion: shrunken log2 fold change no lower than 0.01. Met?
*A* rule met

*Q* Could you please find out whether RRIRFRPPRLPRPRPRPQETPRP has shrunken log2 fold change that meets 0.01 or exceeds it?
*A* rule not met

====

Entries and their shrunken log2 fold change values follow.
System: Escherichia coli TOP10
experimental details: shrunken log2 fold change of peptide-encoding DNA abundance (4.5 h post-induction vs induction); higher = less antimicrobial activity (less host growth inhibition)
assay context: time post-induction: 4.5 h; library: site-saturation at positions 5, 18, 19, 20

The examples below pair each entry with its known result.
chain sequence: RRIRDRPPRLPRPRPRPMKQPRP
tested system: Escherichia coli TOP10
shrunken log2 fold change: -0.076
//
chain sequence: RRIRPRPPRLPRPRPRPICNPRP
tested system: Escherichia coli TOP10
shrunken log2 fold change: -0.367
//
chain sequence: RRIRPRPPRLPRPRPRPNCLPRP
tested system: Escherichia coli TOP10
shrunken log2 fold change: -0.0395
//
chain sequence: RRIRLRPPRLPRPRPRPKWHPRP
tested system: Escherichia coli TOP10
shrunken log2 fold change: -0.207
//
chain sequence: RRIRVRPPRLPRPRPRPTATPRP
tested system: Escherichia coli TOP10
shrunken log2 fold change: 0.272
//
chain sequence: RRIRNRPPRLPRPRPRPAYFPRP
tested system: Escherichia coli TOP10
shrunken log2 fold change: -0.175

For the next question, use this sequence.
*Q* Read off the recorded shrunken log2 fold change for RRIRCRPPRLPRPRPRPFQLPRP
*A* -1.02

====

shrunken log2 fold change reference
Test system: Escherichia coli TOP10;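 further: peptides expressed intracellularly from a pBAD plasmid library in pooled LB shake-flask culture, induced with 0.3% L-arabinose, DNA abundance read by NGS, three biological replicates, DESeq2 with apeglm shrinkage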
experimental details: shrunken log2 fold change of peptide-encoding DNA abundance (4.5 h post-induction vs induction); higher = less antimicrobial activity (less host growth inhibition)
assay context: time post-induction: 4.5 h; library: site-saturation at positions 5, 18, 19, 20
Reply with the value as a number alone.

chain sequence: RRIRLRPPRLPRPRPRPDDEPRP
shrunken log2 fold change: -0.0861
--
chain sequence: RRIRVRPPRLPRPRPRPYHWPRP
shrunken log2 fold change: -0.633
--
chain sequence: RRIRGRPPRLPRPRPRPSFDPRP
shrunken log2 fold change: 0.44
--
chain sequence: RRIRRRPPRLPRPRPRPWVDPRP
shrunken log2 fold change: 0.0233
--
chain sequence: RRIRSRPPRLPRPRPRPHPMPRP
shrunken log2 fold change: -0.236
--
chain sequence: RRIRDRPPRLPRPRPRPAAMPRP
shrunken log2 fold change: 1.32
--
chain sequence: RRIRPRPPRLPRPRPRPQQYPRP
shrunken log2 fold change: -0.108

Next sequence, shrunken log2 fold change to be filled in.
*Q* Kindly indicate its recorded shrunken log2 fold change. Item: RRIRRRPPRLPRPRPRPNFYPRP
*A* -0.124
